Origin of the recorded values: patent US12649733B2

Record form. Attribute: IC50. Fill in for each entry.
- Test system: H146 cells
- assay protocol: H146 cell viability, MTT assay
- Assay type: cell-based
- conditions used: Homo sapiens, NCI-H146, 48 h, 48 h exposure
Report as a plain number; the unit nM is understood.

## Input Return IC50 measured with H146 cells given this compound: Cc1cc(N(C)c2nc(C(=O)O)c(CCCOc3ccc(CCCN(C)C)cc3F)s2)nnc1Nc1nc2ccccc2s1 [Example 214]
## Output 26.7

## Input Recall the recorded IC50 for CNCC#Cc1ccc(OCCCc2sc(N(CCCC(O)CO)c3cc(C)c(Nc4nc5ccccc5s4)nn3)nc2C(=O)O)c(F)c1 (stereo not shown) [Example 119] with H146 cells and state it.
## Output 21.4

## Input Item: COCCCN(c1cc(C)c(Nc2nc3ccccc3s2)nn1)c1nc(C(=O)O)c(-c2cnn(CC34CC5CC(CC(C5)C3)C4)c2C)s1 [Example 52] Test system: H146 cells Read-out: IC50 Value: ?
## Output 13000

## Input // lookup IC50 | system=H146 cells | key= Cc1cc(N(CCCC(O)C[N+]2(C)CCOCC2)c2nc(C(=O)[O-])c(CCCOc3ccc(C#CCN(C)C)cc3F)s2)nnc1Nc1nc2ccccc2s1 (stereo not shown) [Example 217]
## Output 86.2

----------
I'd appreciate it if you could supply pIC50 values for the items below.
- target or test system: BCLXL (Homo sapiens, UniProt Q07817, V10N/V9A)
- Sequence (Q07817 with tags, fused parts or gaps V9A/V10N): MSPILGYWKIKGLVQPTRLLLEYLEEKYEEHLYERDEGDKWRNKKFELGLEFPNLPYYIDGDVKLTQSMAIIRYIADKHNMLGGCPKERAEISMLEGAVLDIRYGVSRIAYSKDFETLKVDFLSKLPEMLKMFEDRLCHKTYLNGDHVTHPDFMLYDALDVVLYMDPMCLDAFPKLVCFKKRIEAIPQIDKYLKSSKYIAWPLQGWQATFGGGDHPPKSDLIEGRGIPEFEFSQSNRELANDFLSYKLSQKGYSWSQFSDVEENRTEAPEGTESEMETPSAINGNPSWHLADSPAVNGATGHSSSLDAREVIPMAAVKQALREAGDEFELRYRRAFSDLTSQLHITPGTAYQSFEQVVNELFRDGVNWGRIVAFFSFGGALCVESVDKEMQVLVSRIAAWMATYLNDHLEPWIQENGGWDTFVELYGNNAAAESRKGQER
- assay protocol: AlphaLISA assay (BIM peptide displacement)
- conditions used: 20 pM protein, 1 nM peptide
# log scale: pIC50 equals minus log10 of the concentration in mol/L

## Input Query the reported pIC50 for BCLXL (Homo sapiens, UniProt Q07817, V10N/V9A); item: Cc1cc(N(C)c2nc(C(=O)O)c(C3CCN(c4ccccc4)CC3)s2)nnc1Nc1nc2ccccc2s1 [Example 91]
## Output 8.28

## Input Find pIC50 (BCLXL (Homo sapiens, UniProt Q07817, V10N/V9A)) for the entry Cc1cc(N(CCCC(O)CN2CCNCC2)c2nc(C(=O)O)c(CCCOc3ccc(C#CCN(C)C)cc3F)s2)nnc1Nc1nc2ccccc2s1 (stereo not shown) [Example 172]
## Output 11.11

## Input Quick check: pIC50 on BCLXL (Homo sapiens, UniProt Q07817, V10N/V9A), item Cc1cc(N(C)c2nc(C(=O)O)c(CC(C)COc3ccc(C#CCN(C)C)cc3F)s2)nnc1Nc1nc2ccccc2s1 (stereo not shown) [Example 116] ?
## Output 10.77

## Input Request - read-out pIC50 | tested on BCLXL (Homo sapiens, UniProt Q07817, V10N/V9A) | compound Cc1cc(N(C)c2nc(C(=O)O)c(CC(O)COc3ccc(C#CCN(C)C)cc3F)s2)nnc1Nc1nc2ccccc2s1 (stereo not shown) [Example 164]
## Output 11.15

----------
- Test system: H146 cells
- assay protocol: H146 cell viability, MTT assay
- Type: cell-based
- conditions used: Homo sapiens, NCI-H146, 48 h, 48 h exposure
value kind: pIC50
Entry type: numeric. Quantity: pIC50, the -log10 of concentration in molar units.

## Input What does the record list as pIC50 for C/C(=C\c1sc(N(C)c2cc(C)c(Nc3nc4ccccc4s3)nn2)nc1C(=O)O)COc1ccccc1 ?
## Output 5.18

## Input For the compound shown here, CNCC#Cc1ccc(OCCCc2sc(N(CC[N+](C)(C)C)c3cc(C)c(Nc4nc5ccccc5s4)nn3)nc2C(=O)[O-])c(F)c1 , give the reported pIC50.
## Output 7.12

## Input Would you kindly share the measured pIC50 for Cc1cc(N(CCCC(O)C[N+]2(C)CCCCC2)c2nc(C(=O)[O-])c(CCCOc3ccc(C#CCN(C)C)cc3F)s2)nnc1Nc1nc2ccccc2s1 (stereo not drawn) ?
## Output 6.66

## Input Need pIC50 of Cc1cc(N(C)c2nc(C(=O)O)c(CCCOc3ccc(C#CCO)cc3F)s2)nnc1Nc1nc2ccccc2s1 , thanks.
## Output 7.41

## Input Param item = CNCC#Cc1ccc(OCCCc2sc(N(CCN(C)C)c3cc(C)c(Nc4nc5ccccc5s4)nn3)nc2C(=O)O)c(F)c1 ; retrieve measured pIC50.
## Output 5.97

## Input I am curious: what pIC50 value has been reported for Cc1c(Nc2nc(C(=O)O)cs2)nnc(Nc2nc3ccccc3s2)c1C ?
## Output 4.82

## Input Any idea what pIC50 was measured for Cc1cc(N(C)c2nc(C(=O)O)c(CC(C)(C)COc3ccc(C#CCN(C)C)cc3F)s2)nnc1Nc1nc2ccccc2s1 ?
## Output 6.49

## Input Param item = Cc1cc(N(C)c2nc(C(=O)O)c(C[C@H](C)COc3ccc(C#CCN(C)C)cc3F)s2)nnc1Nc1nc2ccccc2s1 ; retrieve measured pIC50.
## Output 7.52

## Input pIC50 lookup needed for Cc1cc(N(C)c2nc(C(=O)O)c(CCCOc3ccc(C#CC[N+](C)(C)CCCS(=O)(=O)[O-])cc3F)s2)nnc1Nc1nc2ccccc2s1 , thanks.
## Output 5.92
